Attribution: PubChem BioAssay (NCI)

- System: NCI-H522 lung
- measurement description: NCI tumour cell line growth inhibition, 48 h; in the data active = GI50 below about 0.43 µM; inactive = the rest
Write down one outcome, taken from active, inactive

Take a look at these entries with their results.
| compound | discrete label |
| --- | --- |
| CCC[CH2][Sn]([CH2]CCC)([S]C1=NCCS1)[S]C1=NCCS1 | active |
| COc1cccc2c1c1nc3cc(C)c(C)cc3nc1n2CCN(C)C | inactive |
| COc1cnc2c(c1)C(=O)c1c-2n(CCCN2CCN(C)CC2)c(=O)c2cc(Cl)ccc12 | inactive |

Prompt: I'd appreciate the recorded outcome for Clc1ccc(CO/N=C(\Cn2ccnc2)c2ccc(Cl)cc2Cl)c(Cl)c1 from this test.
Response: inactive

Prompt: I'd appreciate the recorded outcome for CCCCCCCCCCCCCCCCOCCCOP(=O)(O)C1CCCN(O)C1=O (stereo unspecified) from this test.
Response: inactive

Prompt: I'd appreciate the recorded outcome for CO[C@H]1CC[C@@]2(C)C(=CC[C@H]3[C@@H]4C[C@H](O)C[C@@]4(C)CC[C@@H]32)C1 from this test.
Response: inactive

Prompt: I'd appreciate the recorded outcome for O=C(/C=C\Sc1nccc(C(F)(F)F)n1)c1ccc(Br)cc1 from this test.
Response: inactive

Prompt: I'd appreciate the recorded outcome for CC1(C)C2CCC13C(=O)C1OC3(C2)C2C(=O)c3c(O)ccc(O)c3C(=O)C12 (stereo unspecified) from this test.
Response: inactive

Prompt: I'd appreciate the recorded outcome for O=C(Nc1ccc(Br)c(Cl)c1)c1cc(F)ccc1O from this test.
Response: active

Prompt: I'd appreciate the recorded outcome for Cn1cnc2c(NCc3ccccc3)nc(NCCO)nc21 from this test.
Response: inactive

Prompt: I'd appreciate the recorded outcome for COC(=O)c1c2c(c(C)[n+]([O-])c1C)C(=O)C(NCc1ccc(F)c(F)c1)=CC2=O from this test.
Response: inactive

====

- Tested on: SNB-19 CNS
- measurement description: NCI tumour cell line growth inhibition, 48 h; in the data active means GI50 below about 0.43 µM; inactive means the rest
Write down one outcome, taken from true = active, false = inactive

| molecule | discrete label |
| --- | --- |
| CCC[CH2][Sn]([CH2]CCC)([S]C1=NCCS1)[S]C1=NCCS1 | true |
| NC(=O)Oc1cc(OC(N)=O)cc(N(CCCl)CCCl)c1 | false |
| CC(C)=CCC/C(C)=C/CC/C(=C/COP(=O)(OCc1ccc([N+](=O)[O-])o1)N(C)CCCCCl)C(C)(C)C (stereo not drawn) | false |
| Cc1ccc(C(=O)NC2CCCCC2)cc1-c1ccc(C(=O)NCC2CC2)cc1 | false |
| COc1cccc2c1c1nc3cc(C)c(C)cc3nc1n2CCN(C)C | false |

Prompt: I'd appreciate the recorded outcome for COc1ccc(-c2nc(-c3nc4cc(C)c(C)cc4[nH]3)cc3c2[nH]c2ccccc23)cc1 from this test.
Response: false

Prompt: I'd appreciate the recorded outcome for C=C[C@]1(C)C=C2C(=O)[C@@]3(O)OC(=O)[C@@]4(CCCC(C)(C)[C@H]34)[C@@]2(O)CC1 from this test.
Response: false

Prompt: I'd appreciate the recorded outcome for O=C(Cn1ccnc1[N+](=O)[O-])NCC(F)(F)C(F)(F)F from this test.
Response: false

====

- Tested on: SF-539 CNS
- measurement description: NCI tumour cell line growth inhibition, 48 h; in the data active = GI50 below about 0.43 µM; inactive = the rest
Write down one outcome, taken from class 1 = active, class 0 = inactive

| molecule | discrete label |
| --- | --- |
| [N-]=[N+]=CC(=O)OCC(N)C(=O)O (centres undefined) | class 0 |
| CCOn1cc(C2=C(c3c[nH]c4ccccc34)C(=O)NC2=O)c2ccccc21 | class 1 |
| Cc1cccc(N=C2c3cc([N+](=O)[O-])ccc3-c3c2cc([N+](=O)[O-])cc3[N+](=O)[O-])c1 | class 0 |
| CC(=O)OCC1OC(S[As](C)C)C(OC(C)=O)C1OC(C)=O (centres undefined) | class 1 |
| CC/C(=C(\CC)c1ccc(OCCN(CC)CC)cc1)c1ccc(OCCN(CC)CC)cc1 | class 0 |
| C/C(=C\c1ccn(-c2ccc(N)cc2)n1)[C@@H]1C[C@@H]2O[C@]2(C)CCC[C@H](C)[C@H](O)[C@@H](C)C(=O)C(C)(C)[C@@H](O)CC(=O)O1 | class 1 |

Prompt: I'd appreciate the recorded outcome for CCCC(=O)NNc1[nH]c(-c2ccc(OC)cc2)cc1C(=O)OCC from this test.
Response: class 0

Prompt: I'd appreciate the recorded outcome for O=C1/C(=C/C(Cl)=C/c2ccccc2)SC(=S)N1CCc1ccc(O)cc1 from this test.
Response: class 0

Prompt: I'd appreciate the recorded outcome for Cc1ccc(NC(=O)c2ccnc(N3CCCC3)c2)cc1-c1ccc(C(=O)NCC2CC2)cc1 from this test.
Response: class 0

====

Kindly supply the reported TGI values for the records listed here.
- Tested on: U251 CNS
- measurement description: NCI tumour cell line growth inhibition, 48 h

Below, 8 compounds whose answers are already recorded.
| compound | result |
| --- | --- |
| O=C1/C(=C/c2ccccc2)CCCC/C1=C\c1ccccc1 | > 100 µM |
| CC1=CCC[C@]2(C)C1=CC(=O)O[C@H]2c1ccoc1 | > 100 µM |
| O=C(O)CCC1CCC(c2cc(F)ccc2F)(S(=O)(=O)c2ccc(Cl)cc2)CC1 (stereo not given) | > 100 µM |
| CCNc1nc(N2CC(=O)Nc3cc(OC)ccc32)c2ccccc2n1 | > 100 µM |
| CCCCCCCCCCCCNC1(C)CNCCCNCCNCCCNC1 | 2.3 µM |
| Cc1c(CCl)c(=O)oc2c(C)c3occ(CCl)c(=O)c3cc12 | > 100 µM |
| ON(CCc1ccccn1)Cc1ccccc1 | > 100 µM |
| O=C1NC(Cc2c[nH]c3ccccc23)C(=O)N2C(c3ccccc3)c3[nH]c4ccccc4c3C[C@@H]12 (stereo not given in full) | 39.2 µM |

Lab note: each compound below needs its TGI filled in.
1. COC1CC2CCC(C)[C@](O)(O2)C(=O)C(=O)N2CCCCC2C(=O)OC(C(C)CC2CCC(O)C(OC)C2)CC(=O)C(C)C=C(C)C(OC(=O)CN(C)C)C(OC)C(=O)C(C)CC(C)/C=C/C=C/C=C\1C (stereo not given in full)
2. COc1cc(-c2c(C)c(C)nc(OC)c2C#N)cc(OC)c1OC

Response:
1. 18.2 µM
2. > 100 µM

====

- Test system: SF-295 CNS
- measurement description: NCI tumour cell line growth inhibition, 48 h
Where a SMILES comes first, the peptide text is derived from it. The star is where a group is joined. OBn = c1ccc(CO*)cc1
Kindly supply the reported TGI values for the records listed here.

| compound | readout | result |
| --- | --- | --- |
| C/C(=C\COP(=O)(O)OP(=O)(O)O)CC/C=C(\C)CNc1ccc([N+](=O)[O-])cc1 | TGI | > 100 µM |

Lab note: each compound below needs its TGI filled in.
1. O=Cc1ccc2c(c1)CC1(C2)Cc2ccc(C=O)cc2C1
2. COC(=O)C(=O)C(C(=O)C(=O)Nc1cc([N+](=O)[O-])ccc1[N+](=O)[O-])c1nc2ccc(C(=O)c3ccccc3)cc2[nH]c1=O (centres undefined)
3. CCN(CC)CCOc1cc2c(C(=O)OC)c(C)oc2cc1C(C)=O
4. C[C@H](CCC1=NCCN1)[C@H]1CC[C@H]2[C@@H]3CC[C@@H]4C[C@H](O)CC[C@]4(C)[C@H]3CC[C@]12C
5. C#C[C@]1(O)CC[C@H]2[C@@H]3CCC4=C/C(=N\OCCN5CCCC5)CC[C@]4(C)[C@H]3CC[C@@]21C
6. O=c1c2c3c(sc2nc2n1N=CN(c1ccc(Cl)cc1)C2)CCCC3

Response:
1. > 70.4 µM
2. > 100 µM
3. 29.1 µM
4. 10.4 µM
5. 14.5 µM
6. > 100 µM

Lab note: each compound below needs its TGI filled in.
1. Cc1ccc2[nH]c(=O)c(C(C#N)c3ccccc3)nc2c1 (centres undefined)
2. Cc1ccc2sc3c(NCCCNCCO)nc4ccccc4c3c(=O)c2c1
3. COc1ccc(N2C(=O)/C(=C\c3cc(OC)c(OC)c(OC)c3)S(=O)(=O)C2c2ccccc2)cc1 (centres undefined)
4. Cc1ccc(C(=O)NC2CCCCC2)cc1-c1ccc(C(=O)NCC2CC2)cc1

Response:
1. > 100 µM
2. 3.24 µM
3. > 100 µM
4. > 25 µM

Lab note: each compound below needs its TGI filled in.
1. COC1/C=C\OC2(C)Oc3c(C)c(O)c4c(O)c(c(CN(C)C)c(O)c4c3C2=O)NC(=O)/C(C)=C\C=C/C(C)C(O)C(C)C(O)C(C)C(OC(C)=O)C1C (centres undefined)
2. Cc1ccc(S(=O)(=O)n2cc(C(=O)C(=O)Nc3ccncc3)c3ccccc32)cc1
3. C/C(=N/NC(=S)N1CCCC1)c1cccc(/C(C)=N\NC(=S)N2CCCC2)n1
4. COc1cccc2c1c1nc3cc(C)c(C)cc3nc1n2CCN(C)C
5. NC(CCC(=O)OCc1ccccc1)C(=O)NC(CCC(=O)OCc1ccccc1)C(=O)O (centres undefined) (H-Glu(OBn)-Glu(OBn)-OH; configuration not given here)
6. CCCCCNC1=CC(=O)c2ccccc2C1=O
7. COc1ccc2c(c1)[n+]([O-])c(-c1nc3ccccc3s1)c(N)[n+]2[O-]

Response:
> 100 µM
9.57 µM
2.24 µM
7.62 µM
> 100 µM
> 70.3 µM
> 100 µM

Prompt: Please give the measured TGI for this compound: COc1ccc(F)cc1C(=O)c1cnc(NC2CCN(S(C)(=O)=O)CC2)nc1N
Response: > 15.5 µM
